The origin of these recorded values is patent US20240109917A1.

TEST TARGET: PDGFRβ (Rattus norvegicus (Rat), UniProt Q05030)
Sequence (Q05030 32-1097): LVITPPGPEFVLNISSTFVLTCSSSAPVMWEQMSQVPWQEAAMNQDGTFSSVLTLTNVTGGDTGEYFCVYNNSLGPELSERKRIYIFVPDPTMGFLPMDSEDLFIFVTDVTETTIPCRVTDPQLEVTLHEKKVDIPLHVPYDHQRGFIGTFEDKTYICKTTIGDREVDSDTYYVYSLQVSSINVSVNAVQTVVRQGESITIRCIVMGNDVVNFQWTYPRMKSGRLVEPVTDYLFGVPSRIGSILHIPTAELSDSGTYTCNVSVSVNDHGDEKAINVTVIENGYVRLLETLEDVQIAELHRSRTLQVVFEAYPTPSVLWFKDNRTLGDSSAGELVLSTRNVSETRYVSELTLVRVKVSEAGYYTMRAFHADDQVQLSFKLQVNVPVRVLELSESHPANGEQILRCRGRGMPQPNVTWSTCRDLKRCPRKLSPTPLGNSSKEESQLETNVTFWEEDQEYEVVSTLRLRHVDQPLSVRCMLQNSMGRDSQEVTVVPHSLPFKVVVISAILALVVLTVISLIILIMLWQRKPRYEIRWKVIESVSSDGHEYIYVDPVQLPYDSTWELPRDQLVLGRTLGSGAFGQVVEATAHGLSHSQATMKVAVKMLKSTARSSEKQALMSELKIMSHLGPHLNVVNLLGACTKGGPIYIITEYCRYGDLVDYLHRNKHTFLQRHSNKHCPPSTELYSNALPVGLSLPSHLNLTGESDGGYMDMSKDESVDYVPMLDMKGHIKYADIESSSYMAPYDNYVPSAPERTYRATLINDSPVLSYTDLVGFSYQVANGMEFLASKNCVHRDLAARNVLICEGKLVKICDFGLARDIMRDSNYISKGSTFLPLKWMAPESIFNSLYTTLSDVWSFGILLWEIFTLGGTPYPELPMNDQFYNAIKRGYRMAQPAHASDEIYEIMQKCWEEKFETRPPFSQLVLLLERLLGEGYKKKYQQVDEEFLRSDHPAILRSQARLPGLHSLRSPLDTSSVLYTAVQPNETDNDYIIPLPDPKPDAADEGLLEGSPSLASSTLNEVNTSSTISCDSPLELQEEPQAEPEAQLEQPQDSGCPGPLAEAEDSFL
TEST DESCRIPTION: PDGFRβ Cellular Assay (PDGFRb P-Y751 HTRF in A10 cells stimulated with PDGF-BB)
Assay type: cell-based
RUN PARAMETERS: read-out: PDGFR Cellular IC50
Please provide measured pIC50 for the entries that follow.
# reply with the number alone; pIC50 is -log10 of concentration in mol/L

Give pIC50 (PDGFRβ (Rattus norvegicus (Rat), UniProt Q05030)) of the following compound: Cc1ncc(NC(=O)CN2CC(C)(C)C2)cc1NC(=O)c1cnn2cc(-c3cnn(C4CS(=O)(=O)C4)c3)sc12
7.43

Give pIC50 (PDGFRβ (Rattus norvegicus (Rat), UniProt Q05030)) of the following compound: Cc1ncc(NC(=O)CN2CC(C)(C)C2)cc1NC(=O)c1cnn2cc(-c3cnn(CC(F)(F)F)c3)sc12
7.94

Give pIC50 (PDGFRβ (Rattus norvegicus (Rat), UniProt Q05030)) of the following compound: Cc1ncc(NC(=O)CN2C[C@H](C)O[C@@H](C)C2)cc1NC(=O)c1cnn2cc(-c3c(C)n[nH]c3C)sc12 (relative stereo)
7.25

Give pIC50 (PDGFRβ (Rattus norvegicus (Rat), UniProt Q05030)) of the following compound: COCCn1cc(-c2cn3ncc(C(=O)Nc4cc(NC(=O)CCN5CCC56CCC6)cnc4C)c3s2)cn1
7.75

Give pIC50 (PDGFRβ (Rattus norvegicus (Rat), UniProt Q05030)) of the following compound: Cc1ncc(C(=O)NCCN2CCCC2(C)C)cc1NC(=O)c1cnn2cc(-n3ncc4cccnc43)sc12
8.05

Give pIC50 (PDGFRβ (Rattus norvegicus (Rat), UniProt Q05030)) of the following compound: Cc1ncc(NC(=O)CN2CCN(C)CC2)cc1NC(=O)c1cnn2cc(-c3cnn(C)c3)sc12
5.76

Give pIC50 (PDGFRβ (Rattus norvegicus (Rat), UniProt Q05030)) of the following compound: COc1ncccc1-c1cn2ncc(C(=O)Nc3cc(NC(=O)CN4CCOC(C)(C)C4)cnc3C)c2s1
8.57

----------
TEST TARGET: Tb-labeled inactive PDGFRβ (Homo sapiens (Human))
Sequence (P09619 33-1106): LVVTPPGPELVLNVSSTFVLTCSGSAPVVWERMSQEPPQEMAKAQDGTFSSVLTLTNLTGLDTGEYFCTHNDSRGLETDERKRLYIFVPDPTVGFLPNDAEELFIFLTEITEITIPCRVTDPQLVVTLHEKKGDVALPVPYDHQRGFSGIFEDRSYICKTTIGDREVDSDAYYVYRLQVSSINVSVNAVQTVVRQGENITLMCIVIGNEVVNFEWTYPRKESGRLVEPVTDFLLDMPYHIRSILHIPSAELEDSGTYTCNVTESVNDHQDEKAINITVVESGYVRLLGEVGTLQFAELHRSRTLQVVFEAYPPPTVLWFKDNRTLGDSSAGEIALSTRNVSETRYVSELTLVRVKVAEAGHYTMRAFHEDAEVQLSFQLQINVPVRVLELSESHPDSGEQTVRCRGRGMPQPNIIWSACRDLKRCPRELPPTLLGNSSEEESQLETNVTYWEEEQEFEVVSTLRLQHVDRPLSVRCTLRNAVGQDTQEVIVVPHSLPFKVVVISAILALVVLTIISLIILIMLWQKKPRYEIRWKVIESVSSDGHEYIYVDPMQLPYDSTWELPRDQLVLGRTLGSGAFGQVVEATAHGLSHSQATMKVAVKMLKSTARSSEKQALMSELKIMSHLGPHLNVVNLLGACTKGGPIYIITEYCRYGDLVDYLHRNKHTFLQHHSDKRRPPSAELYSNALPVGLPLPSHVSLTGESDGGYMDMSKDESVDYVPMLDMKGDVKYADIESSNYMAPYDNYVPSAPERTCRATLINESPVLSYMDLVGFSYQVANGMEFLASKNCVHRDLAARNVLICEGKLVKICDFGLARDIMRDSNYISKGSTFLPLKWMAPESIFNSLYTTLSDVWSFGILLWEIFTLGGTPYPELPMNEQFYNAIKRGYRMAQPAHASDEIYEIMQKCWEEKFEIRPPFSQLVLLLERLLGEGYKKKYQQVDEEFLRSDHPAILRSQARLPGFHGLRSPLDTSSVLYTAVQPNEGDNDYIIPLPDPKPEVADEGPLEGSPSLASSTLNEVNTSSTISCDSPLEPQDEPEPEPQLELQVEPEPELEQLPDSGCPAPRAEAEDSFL
TEST DESCRIPTION: PDGFRβ LanthaScreen Assay
RUN PARAMETERS: read-out: PDGFR Lantha IC50
Please provide measured IC50 for the entries that follow.
API: value field is a number in µM; no unit string.

What value of IC50 has been recorded for this entry: Cc1ncc(C(=O)NCCN2CCCC23COC3)cc1NC(=O)c1cnn2cc(-c3cnn(C)c3)sc12
0.0046

What value of IC50 has been recorded for this entry: Cc1ncc(NC(=O)CN(C)C2CCOCC2)cc1NC(=O)c1cnn2cc(-c3cnn(CC(N)=O)c3)sc12
0.0124

What value of IC50 has been recorded for this entry: CC[C@@H]1CN(CC(=O)Nc2cnc(C)c(NC(=O)c3cnn4cc(-c5cnn(C)c5)sc34)c2)CCO1
0.0165

What value of IC50 has been recorded for this entry: Cc1ncc(NC(=O)CN2CC(C)(C)C2)cc1NC(=O)c1cnn2cc(-c3cnn(C4CCS(=O)(=O)CC4)c3)sc12
0.0043

What value of IC50 has been recorded for this entry: COCCn1cc(-c2cn3ncc(C(=O)Nc4cc(NC(=O)CCN5CCC6(CC6)C5)cnc4C)c3s2)cn1
0.0132

What value of IC50 has been recorded for this entry: Cc1ncc(NC(=O)CNCC2CC2)cc1NC(=O)c1cnn2cc(-c3cnn4c3OCCC4)sc12
0.0058
